These data points were gathered from ChEMBL document CHEMBL4321867.

hepatocyte CLint at 1 µM values for the compounds below.
PROTOCOL_DESCRIPTION: in vitro
PARTICULARS: human, hepatocytes
QUANTITY_MEASURED: hepatocyte CLint at 1 µM

> print(dat)
                               smiles.input       observed.result
1  C[C@@](CCN1Cc2cc(C#CC#C[C@@H]3C[C@@]3(F)CO)cn2C1=O)(C(=O)NO)S(C)(=O)=O  < 2 µL/min/1e6 cells
2  C[C@@](CCN1Cc2cc(C#CC#C[C@H]3C[C@@H]3[C@@H](O)CO)cn2C1=O)(C(=O)NO)S(C)(=O)=O  < 2 µL/min/1e6 cells
3  CN1CC(C#CC#Cc2cc3n(c2)C(=O)N(CC[C@](C)(C(=O)NO)S(C)(=O)=O)C3)C1  < 2 µL/min/1e6 cells
4  C[C@@](CCN1Cc2cc(C#CC#CC3CN(CCF)C3)cn2C1=O)(C(=O)NO)S(C)(=O)=O  < 2 µL/min/1e6 cells
5  C[C@@](CCN1Cc2cc(C#CC#C[C@H]3C[C@@H]3CO)cn2C1=O)(C(=O)NO)S(C)(=O)=O  3.2 µL/min/1e6 cells
6  C[C@@](CCN1Cc2cc(C#CC#CC3(N)CC3)cn2C1=O)(C(=O)NO)S(C)(=O)=O  < 2 µL/min/1e6 cells
7  C[C@@](CCN1Cc2cc(C#CC#CC3CN(CCO)C3)cn2C1=O)(C(=O)NO)S(C)(=O)=O  < 2 µL/min/1e6 cells

* * *

PROTOCOL_DESCRIPTION: physchem
PARTICULARS: 5% mannitol/water, pH 8.2
QUANTITY_MEASURED: solubility (mg/mL)

> print(dat)
                               smiles.input  units  observed.result
1  C[C@@](CCN1Cc2cc(C#CC#C[C@H]3C[C@@H]3[C@@H](O)CO)cn2C1=O)(C(=O)NO)S(C)(=O)=O  mg/mL               25

* * *

Items are presented alongside their recorded pKa.
PROTOCOL_DESCRIPTION: physchem
QUANTITY_MEASURED: pKa

> print(dat)
                               smiles.input  observed.result
1  CC(C)(O)CN1CC(C#CC#Cc2cc3n(c2)C(=O)N(CC[C@](C)(C(=O)NO)S(C)(=O)=O)C3)C1              7.8
2  C[C@@](CCN1Cc2cc(C#CC#CC3CNC3)cn2C1=O)(C(=O)NO)S(C)(=O)=O              9.4
3  C[C@@](CCN1Cc2cc(C#CC#CC3(N)CC3)cn2C1=O)(C(=O)NO)S(C)(=O)=O              6.5
4  CN1CCC(F)(C#CC#Cc2cc3n(c2)C(=O)N(CC[C@](C)(C(=O)NO)S(C)(=O)=O)C3)CC1                8

* * *

PROTOCOL_DESCRIPTION: physchem
PARTICULARS: 5% mannitol/water, pH 8.4
QUANTITY_MEASURED: solubility (µg/mL)

> print(dat)
                               smiles.input  quantity.measured  observed.result
1  C[C@@](CCN1Cc2cc(C#CC#C[C@@H]3C[C@@]3(F)CO)cn2C1=O)(C(=O)NO)S(C)(=O)=O         solubility             1000
